# tgt: Cdc2/cyclin B (Homo sapiens, UniProt P06493)
# Sequence (P06493 whole entry, species assumed): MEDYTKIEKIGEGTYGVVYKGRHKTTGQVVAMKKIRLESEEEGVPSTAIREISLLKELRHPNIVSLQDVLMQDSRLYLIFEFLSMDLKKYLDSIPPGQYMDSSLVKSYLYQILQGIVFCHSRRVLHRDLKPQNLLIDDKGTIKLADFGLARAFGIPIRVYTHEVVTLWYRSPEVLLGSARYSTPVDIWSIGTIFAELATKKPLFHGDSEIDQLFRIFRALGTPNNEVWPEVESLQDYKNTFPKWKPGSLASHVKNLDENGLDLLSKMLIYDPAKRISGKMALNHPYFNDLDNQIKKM
# Sequence (P14635 whole entry partner, species assumed): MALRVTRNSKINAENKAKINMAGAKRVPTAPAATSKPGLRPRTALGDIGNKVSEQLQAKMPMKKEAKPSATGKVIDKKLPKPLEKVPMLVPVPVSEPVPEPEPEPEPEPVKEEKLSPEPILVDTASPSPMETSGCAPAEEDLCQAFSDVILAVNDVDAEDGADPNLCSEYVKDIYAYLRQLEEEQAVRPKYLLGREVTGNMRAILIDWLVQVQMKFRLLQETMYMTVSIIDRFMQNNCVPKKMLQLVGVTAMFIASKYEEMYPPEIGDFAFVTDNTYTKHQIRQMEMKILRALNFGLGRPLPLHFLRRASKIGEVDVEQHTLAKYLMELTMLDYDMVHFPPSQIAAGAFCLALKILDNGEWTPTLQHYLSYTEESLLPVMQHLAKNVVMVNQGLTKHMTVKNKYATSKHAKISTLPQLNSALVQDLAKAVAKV
# protocolDescription: Biochemical kinase assay Cdc2/cyclin B
# runConditions: Table 6
pIC50: −log10 of the molar value.
measurementKind: pIC50

- O=C(Nc1cccc2c1C(=O)c1c-2n[nH]c1-c1ccc(OCC(=O)N2CCOCC2)cc1)NN1CCOCC1: > 7.00
- O=C(Nc1cccc2c1C(=O)c1c(-c3ccc(CNCc4ccccn4)cc3)n[nH]c1-2)NN1CCOCC1: > 7.00
- Cc1cc(OCCN2CCCC2)ccc1-c1[nH]nc2c1C(=O)c1c(NC(=O)NN3CCOCC3)cccc1-2: > 7.00
- CC(C)c1nn(-c2c(Cl)cc(S(N)(=O)=O)cc2Cl)c2nc(Cc3ccc(OCCN4CCOCC4)cc3)[nH]c(=O)c12: > 8.00
- O=C(Nc1cccc2c1C(=O)c1c(-c3ccc(CN4CCOCC4)cc3)n[nH]c1-2)NN1CCOCC1: > 7.00
- Cc1cc(OCCN2CCCN(C)CC2)ccc1-c1[nH]nc2c1C(=O)c1c(NC(=O)NN3CCN(C)CC3)cccc1-2: > 8.00
- COc1cc(-c2[nH]nc3c2C(=O)c2c(NC(=O)NN4CCOCC4)cccc2-3)ccc1OCCN1CCCC1: > 7.00

====

# System: HIV-1 ROJO
# protocolDescription: Antiviral activity in PBMCs infected with HIV-1 ROJO (reverse transcriptase)
# Assay type: cell-based
Consider the following compounds and their measured TI: TC50/IC50 readings.
measurementKind: TI: TC50/IC50

• CC(C)c1nn(-c2c(Cl)cc(Cl)cc2Cl)c2nc(Cc3ccc(OCC(C)(C)O)cc3)[nH]c(=O)c12 = >10
• Cc1cn([C@H]2C[C@H](N=[N+]=[N-])[C@@H](CO)O2)c(=O)[nH]c1=O [AZT, reference compound] = >100
• CC(C)c1nn(-c2c(Cl)cccc2Cl)c2nc(Cc3ccc(CN4CCCC4)c(O)c3)[nH]c(=O)c12.Cl = >10
• CC(C)c1nn(-c2c(Cl)cc(Cl)cc2Cl)c2nc(Cc3ccc(CNC(CO)CO)n3C)[nH]c(=O)c12.Cl = >1
• CC(C)c1nn(-c2c(Cl)cc(Cl)cc2Cl)c2nc(Cc3ccc(OCCO)cc3)[nH]c(=O)c12 = >10
• CC(C)c1nn(-c2c(Cl)cccc2Cl)c2nc(Cc3ccc(OCCN4CCOCC4)c(O)c3)[nH]c(=O)c12 = >10

====

Overview of recorded IC50 for various compounds
# tgt: Cdk4/cyclin D1 (Homo sapiens, UniProt P11802)
# Sequence (P11802 whole entry, species assumed): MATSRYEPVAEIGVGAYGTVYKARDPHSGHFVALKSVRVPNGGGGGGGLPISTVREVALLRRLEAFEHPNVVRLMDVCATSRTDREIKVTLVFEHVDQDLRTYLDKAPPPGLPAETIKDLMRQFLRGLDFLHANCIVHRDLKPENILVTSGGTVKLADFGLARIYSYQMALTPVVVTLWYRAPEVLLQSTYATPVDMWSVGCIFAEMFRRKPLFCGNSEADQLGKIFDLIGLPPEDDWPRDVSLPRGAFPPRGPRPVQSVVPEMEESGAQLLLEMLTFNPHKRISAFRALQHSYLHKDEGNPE
# Sequence (P24385 whole entry partner, species assumed): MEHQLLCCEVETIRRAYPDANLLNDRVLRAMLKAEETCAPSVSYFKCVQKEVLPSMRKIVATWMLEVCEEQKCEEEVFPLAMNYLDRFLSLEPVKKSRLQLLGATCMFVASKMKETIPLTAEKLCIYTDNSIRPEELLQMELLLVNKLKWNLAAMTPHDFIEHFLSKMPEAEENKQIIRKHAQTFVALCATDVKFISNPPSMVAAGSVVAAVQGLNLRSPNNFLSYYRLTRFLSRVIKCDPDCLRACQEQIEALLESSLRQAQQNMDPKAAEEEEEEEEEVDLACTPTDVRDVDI
# protocolDescription: Biochemical kinase assay Cdk4/cyclin D1
# runConditions: Table 6
measurementKind: IC50

* CC(C)OC(=O)CN1CCN(NC(=O)Nc2cccc3c2C(=O)c2c-3n[nH]c2-c2ccc(OCCN3CCCC3)cc2)CC1 | < 100 nM
* Cc1cc(-c2[nH]nc3c2C(=O)c2c(NC(=O)NN4CCN(C)CC4)cccc2-3)ccc1OCCN1CCN(C(C)C)CC1 | < 100 nM
* CC(C)c1nn(-c2c(Cl)cccc2Cl)c2nc(Cc3ccc(OCC(C)(C)O)cc3)[nH]c(=O)c12 | < 1000 nM
* CC(C)c1nn(-c2c(Cl)cccc2Cl)c2nc(Cc3ccc(OCCOP(=O)(O)O)cc3)[nH]c(=O)c12 | < 10000 nM
* CC(C)N1CCN(CCCOc2ccc(-c3[nH]nc4c3C(=O)c3c(NC(=O)NN5CCOCC5)cccc3-4)cc2)CC1 | < 100 nM
* CC(C)c1nn(-c2c(Cl)cc(Cl)cc2Cl)c2nc(Cc3ccc(NS(=O)(=O)CCCN4CCCC4)cc3)[nH]c(=O)c12 | < 1000 nM
* CC(C)N1CCN(NC(=O)Nc2cccc3c2C(=O)c2c-3n[nH]c2-c2ccc(OCCN3CCCC3)cc2)CC1 | < 100 nM

====

# tgt: Cdk2/cyclin E (Homo sapiens, UniProt P24941)
# protocolDescription: Biochemical kinase assay Cdk2/cyclin E
# runConditions: Table 6
pIC50: −log10 of the molar value.
measurementKind: pIC50

- CC(C)C(N)C(=O)OCCN1CCN(NC(=O)Nc2cccc3c2C(=O)c2c-3n[nH]c2-c2ccc(OCCN3CCCC3)cc2)CC1 (stereo not shown): > 7.00
- O=C(Nc1cccc2c1C(=O)c1c(-c3ccc(CNC(CO)CO)cc3)n[nH]c1-2)NN1CCOCC1: > 8.00
- CC(C)c1nn(-c2c(Cl)cc(Cl)cc2Cl)c2nc(Cc3ccc(OCCO)cc3)[nH]c(=O)c12: > 7.00
- CC(C)c1nn(-c2c(Cl)cccc2Cl)c2nc(Cc3ccc(OCC(C)(C)O)cc3)[nH]c(=O)c12: > 7.00
- Cc1cc(OCCN2CCCCC2)ccc1-c1[nH]nc2c1C(=O)c1c(NC(=O)NN3CCN(C)CC3)cccc1-2: > 7.00
- CC(C)c1nn(-c2c(Cl)cccc2Cl)c2nc(Cc3ccc(O)cc3)[nH]c(=O)c12: > 8.00
- O=C(O)COc1ccc(-c2n[nH]c3c2C(=O)c2c(NC(=O)NN4CCOCC4)cccc2-3)cc1: > 8.00

====

# tgt: Cdc2/cyclin B (Homo sapiens, UniProt P06493)
# protocolDescription: Biochemical kinase assay Cdc2/cyclin B
# runConditions: Table 6
measurementKind: IC50

* CC(C)c1nn(-c2c(Cl)cc(Cl)cc2Cl)c2nc(Cc3ccc(OCCN4CCN(C(C)C)CC4)cc3)[nH]c(=O)c12 | < 100 nM
* CC(C)N1CCN(CCOc2ccc(-c3n[nH]c4c3C(=O)c3c(NC(=O)NN5CCOCC5)cccc3-4)c(F)c2)CC1 | < 100 nM
* CC(C)c1nn(-c2c(Cl)cc(Cl)cc2Cl)c2nc(Cc3ccc(NS(=O)(=O)CCCN4CCN(C(C)C)CC4)cc3)[nH]c(=O)c12 | < 1000 nM
* Cc1cc(-c2[nH]nc3c2C(=O)c2c(NC(=O)NN4CCN(C)CC4)cccc2-3)ccc1OCCN1CCN(C(C)C)CC1 | < 100 nM
* CC(C)c1nn(-c2c(Cl)cccc2Cl)c2nc(Cc3ccc(O)c(CN4CCOCC4)c3)[nH]c(=O)c12 | < 1000 nM
* CN(C)C(=O)COc1ccc(-c2[nH]nc3c2C(=O)c2c(NC(=O)NN4CCOCC4)cccc2-3)cc1 | < 100 nM
* CC(C)N1CCN(S(=O)(=O)c2ccc(-c3[nH]nc4c3C(=O)c3c(NC(=O)NN5CCOCC5)cccc3-4)cc2)CC1 | < 10 nM
* COCCOc1ccc(Cc2nc3c(c(C(C)C)nn3-c3c(Cl)cccc3Cl)c(=O)[nH]2)cc1 | < 100 nM
* CC(C)N1CCN(C(=O)COc2ccc(-c3[nH]nc4c3C(=O)c3c(NC(=O)NN5CCOCC5)cccc3-4)cc2)CC1 | < 100 nM
* CC(C)c1nn(-c2c(Cl)cccc2Cl)c2nc(Cc3ccc(OCCOP(=O)(O)O)cc3)[nH]c(=O)c12 | < 100 nM
* O=C(Nc1cccc2c1C(=O)c1c(-c3ccc(OCCN4CCOCC4)c(F)c3)n[nH]c1-2)NN1CCOCC1 | < 10 nM
* CC(C)C(N)C(=O)OCCN1CCN(NC(=O)Nc2cccc3c2C(=O)c2c-3n[nH]c2-c2ccc(OCCN3CCCC3)cc2)CC1 (stereo not shown) | < 100 nM
* CC(C)c1nn(-c2c(Cl)cc(Cl)cc2Cl)c2nc(Cc3ccc(CN4CCCC4)n3C)[nH]c(=O)c12 | < 1000 nM
* Cc1cc(-c2[nH]nc3c2C(=O)c2c(NC(=O)NN4CCOCC4)cccc2-3)ccc1OCCN1CCCC1 | < 100 nM
* CC(C)c1nn(-c2c(Cl)cccc2Cl)c2nc(Cc3ccc(O)cc3)[nH]c(=O)c12 | < 100 nM
* O=C(Nc1cccc2c1C(=O)c1c(-c3ccc(CN(CCO)CCO)cc3)n[nH]c1-2)NN1CCOCC1 | < 10 nM
* Cc1cc(OCCN2CCN(C(C)C)CC2)ccc1-c1[nH]nc2c1C(=O)c1c(NC(=O)NN3CCN(C)CC3)cccc1-2 | < 100 nM
* CC(C)OC(=O)CN1CCN(NC(=O)Nc2cccc3c2C(=O)c2c-3n[nH]c2-c2ccc(OCCN3CCCC3)cc2)CC1 | < 100 nM
* CN1CCN(CCOc2ccc(-c3n[nH]c4c3C(=O)c3c(NC(=O)NN5CCN(C)CC5)cccc3-4)c(F)c2)CC1 | < 100 nM
* CC(C)c1nn(-c2c(Cl)cc(Cl)cc2Cl)c2nc(Cc3ccc(OCC(C)(C)O)cc3)[nH]c(=O)c12 | < 100 nM
* CCN(CCO)S(=O)(=O)c1cc(Cl)c(-n2nc(C(C)C)c3c(=O)[nH]c(Cc4ccc(OCCN5CCOCC5)cc4)nc32)c(Cl)c1 | < 100 nM
* CN1CCN(NC(=O)Nc2cccc3c2C(=O)c2c-3n[nH]c2-c2ccc(OCC(=O)N3CCCC3)cc2)CC1 | < 10 nM
* O=C(Nc1cccc2c1C(=O)c1c(-c3ccc(CNCC(O)CO)cc3)n[nH]c1-2)NN1CCOCC1 (stereo not shown) | < 100 nM
* O=C(Nc1cccc2c1C(=O)c1c-2n[nH]c1-c1ccc(OCC(=O)N2CCCC2)cc1)NN1CCOCC1 | < 10 nM
* CN1CCN(NC(=O)Nc2cccc3c2C(=O)c2c-3n[nH]c2-c2ccc(OCCn3cccn3)cc2)CC1 | < 10 nM
* CC(C)c1nn(-c2c(Cl)cccc2Cl)c2nc(Cc3ccc(OCCN4CCOCC4)cc3)[nH]c(=O)c12 | < 1000 nM
* O=C(Nc1cccc2c1C(=O)c1c(-c3ccc(CN4CC[C@@H](O)C4)cc3)n[nH]c1-2)NN1CCOCC1 | < 100 nM
* O=C(Nc1cccc2c1C(=O)c1c(-c3ccc(OCCN4CCOCC4)cc3Cl)n[nH]c1-2)NN1CCOCC1 | < 100 nM
